# experimentSummary: in vitro
# conditionsUsed: human
endpointLabel: CC50

Ask | Tell me the measured CC50 of Nc1nc(O)c2ncn(COC(CO)CO)c2n1 , please.
Reply | > 100 µM

* * *

# Test system: HCMV
# experimentSummary: Reversibility of HCMV inhibition, real-time PCR in supernatants
# Format: cell-based, Human Cytomegalovirus (HCMV)
# conditionsUsed: treated 1, 2 or 3 days, then fresh media; HCMV DNA in supernatants at day 6 post infection
endpointLabel: reversibility of HCMV inhibition

{"testSmiles": "CC[C@@H](C(=O)[C@@H](C)[C@@H](O)[C@H](C)[C@@H]1O[C@@H]([C@@H](CC)C(=O)O)CC[C@@H]1C)[C@H]1O[C@]2(C=C[C@@H](O)[C@]3(CC[C@@](C)([C@H]4CC[C@](O)(CC)[C@H](C)O4)O3)O2)[C@H](C)C[C@@H]1C", "tgt": "HCMV", "endpointLabel": "reversibility of HCMV inhibition", "result": "fully reversible"}
{"testSmiles": "Nc1nc(O)c2ncn(COC(CO)CO)c2n1", "tgt": "HCMV", "endpointLabel": "reversibility of HCMV inhibition", "result": "fully reversible"}

* * *

# experimentSummary: in vitro
# conditionsUsed: human
Answer each item with its documented CC50 at 3 days.
Give the number; µM is assumed, so skip it.

Ask | Request the reported CC50 at 3 days associated with CC[C@@]1([C@@H]2O[C@@H]([C@H]3O[C@@](O)(CO)[C@H](C)C[C@@H]3C)C[C@@H]2C)CC[C@H]([C@]2(C)CC[C@]3(C[C@H](O)[C@@H](C)[C@@H]([C@@H](C)[C@@H](OC)[C@H](C)C(=O)O)O3)O2)O1 [Monensin]
Reply | 3.37

Ask | Likewise for Nc1nc(O)c2ncn(COC(CO)CO)c2n1 [GCV, ganciclovir] ?
Reply | 247

Ask | Proceed to CO[C@@H]1C[C@@H](C[C@H]2CC[C@H](C)[C@H]([C@@H](C)C(=O)O)O2)O[C@]2(O[C@](C)([C@H]3CC[C@@](C)([C@@H]4O[C@@H]([C@H]5O[C@@](O)(CO)[C@H](C)C[C@@H]5C)C[C@@H]4C)O3)C[C@H]2C)[C@@H]1C [Nigericin, nigericin]
Reply | 3.35

Ask | Now the compound CC[C@@H](C(=O)[C@@H](C)[C@@H](O)[C@H](C)[C@@H]1O[C@@H]([C@@H](CC)C(=O)O)CC[C@@H]1C)[C@H]1O[C@]2(C=C[C@@H](O)[C@]3(CC[C@@](C)([C@H]4CC[C@](O)(CC)[C@H](C)O4)O3)O2)[C@H](C)C[C@@H]1C [Salinomycin, salinomycin]
Reply | 28.4

* * *

For each record, write down the corresponding EC50.
# Test system: pp28-luciferase HCMV Towne strain
# experimentSummary: microbe, parasite or virus in culture
# Assay type: cell-based, Human Cytomegalovirus (HCMV)
# conditionsUsed: Human betaherpesvirus 5, read-out: EC50 (μM), anti-HCMV activity
# Protocol: The pp28-luciferase HCMV Towne strain was constructed as previously described (14). This virus expresses luciferase under the control of the late CMV gene promoter, pp28. Luciferase expression is strongly activated 48-72 hours post infection (hpi). […] A GCV-resistant HCMV strain was obtained from a patient with CMV disease. […] The Johns Hopkins Office of Human Subject Research Institutional Review Board determined that this research qualified for an exemption. […]
Use µM as the unit, but write only the number.

Ask | Which measured EC50 value corresponds to Nc1nc(O)c2ncn(COC(CO)CO)c2n1 ?
Reply | 2.7

Ask | Same thing, different compound: CO[C@@H]1C[C@@H](C[C@H]2CC[C@H](C)[C@H]([C@@H](C)C(=O)O)O2)O[C@]2(O[C@](C)([C@H]3CC[C@@](C)([C@@H]4O[C@@H]([C@H]5O[C@@](O)(CO)[C@H](C)C[C@@H]5C)C[C@@H]4C)O3)C[C@H]2C)[C@@H]1C
Reply | 0.02

Ask | Would you mind doing CC[C@@H](C(=O)[C@@H](C)[C@@H](O)[C@H](C)[C@@H]1O[C@@H]([C@@H](CC)C(=O)O)CC[C@@H]1C)[C@H]1O[C@]2(C=C[C@@H](O)[C@]3(CC[C@@](C)([C@H]4CC[C@](O)(CC)[C@H](C)O4)O3)O2)[C@H](C)C[C@@H]1C as well?
Reply | 0.2

Ask | Next up: CC[C@@]1([C@@H]2O[C@@H]([C@H]3O[C@@](O)(CO)[C@H](C)C[C@@H]3C)C[C@@H]2C)CC[C@H]([C@]2(C)CC[C@]3(C[C@H](O)[C@@H](C)[C@@H]([C@@H](C)[C@@H](OC)[C@H](C)C(=O)O)O3)O2)O1
Reply | 0.02
